# Lookup of reported IC50 keyed by entry
- Tested on: X4 tropic HIV-1 NL4-3
- particulars: blocking X4 tropic HIV-1 NL4-3 infection
No end group written: not given here.
Respond numerically; units are µM and should not be typed.

Below, each entry is followed by its recorded IC50 result.
{"residue_sequence": "LVRYTKKVPQVSTPT [Derivative 408-422, LVRYTKKVPQVSTPT]", "numeric_result": 13.4}
{"residue_sequence": "LVRYTKKVPQ [Derivative 408-417, LVRYTKKVPQ]", "numeric_result": 19.8}
{"residue_sequence": "LVRYAKKV [408-415-T412A, LVRYAKKV]", "numeric_result": 11.2}
{"residue_sequence": "LVRYTKKVPQVSTP [Derivative 408-421, LVRYTKKVPQVSTP]", "numeric_result": 14}
{"residue_sequence": "IVRWTCKVPQVS [408I-419 WCO2, IVRWTCKVPQVS]", "numeric_result": 2.1}
{"residue_sequence": "LLVRYTKKVPQVS [Derivative 407-419, LLVRYTKKVPQVS]", "numeric_result": 11.1}
{"residue_sequence": "IVRWTKKVPQVS [408I-419 Y411W, IVRWTKKVPQVS]", "numeric_result": 1.54}
{"residue_sequence": "LARYTKKV [408-415-V409A, LARYTKKV]", "numeric_result": 32.9}

Input line: Please give the documented IC50 of IVRWSKKVPQCS [408I-419 WSC01, IVRWSKKVPQCS]
Output line: 0.87

Input line: Please give the documented IC50 of LVRYTKKVPQVSTPTL [Derivative 408-423, LVRYTKKVPQVSTPTL]
Output line: 8.63

Input line: Please give the documented IC50 of IVRYTKKVPQCS [408I-419 V418C, IVRYTKKVPQCS]
Output line: 3.69

Input line: Please give the documented IC50 of IVRYSKKVPQVS [408I-419 T412S, IVRYSKKVPQVS]
Output line: 2.09

Input line: Please give the documented IC50 of IVRWSKKVPCVS [408I-419 WSC02, IVRWSKKVPCVS]
Output line: 0.31

Input line: Please give the documented IC50 of IVRYTKCVPQVS [408I-419 K414C, IVRYTKCVPQVS]
Output line: 5.87
